System: 6 Hz psychomotor seizure
assayRemarks: Minimal clonic seizure (6 Hz) test
Format: in vivo
assayContext: Mus musculus, ip, Mice IP, 32 mA; read-out: ED50 32 mA (6 Hz test)
readoutKind: ED50 (mg/kg)
Give bare numbers, in mg/kg.

Worked cases, answers included:
                                        mol  readoutkind  readoutnumber
0  C#Cc1ccc2c(c1)C(c1ccccn1)=NCc1c(C(=O)OCC)ncn1-2         ED50           25.8
1  C#Cc1ccc2c(c1)C(c1ccccc1Cl)=NCc1nnc(C)n1-2         ED50           0.17

Attention now turns to another entry.
For `C#Cc1ccc2c(c1)C(c1ccccc1F)=NCc1c(C(=O)OCC)ncn1-2` , what is its reported ED50?
39.2
